Ref: paper PMC5261807

measured.target: T1, Bdf1 bromodomain 1 (GST-tagged, WT) (Saccharomyces cerevisiae (strain ATCC …, UniProt P35817))
T1 chain: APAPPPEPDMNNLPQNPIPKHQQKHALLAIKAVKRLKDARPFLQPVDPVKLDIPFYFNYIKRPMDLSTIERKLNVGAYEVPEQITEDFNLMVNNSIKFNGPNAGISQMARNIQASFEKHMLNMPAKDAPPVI
test.summary: histone peptide array probed with recombinant GST-bromodomain, signal normalised to myc peptide control
No end group written: not given here.
# maps each entry to its binding score

binder	binding score
ARTKQTARKSTGGKAPRKQ (A R T Kme2 Q T A Rme2s Kme3 S T G G K A P R K Q)	0.00592
ARTKQTARKSTGGKAPRKQ (A Rme2a T Kme1 Q T A Rme2a Kme2 S T G G K A P R K Q)	0.00251
SGRGKQGGKARAK(Ac)AKSRSS [H2a 1-19]	0.00932

Next binder, binding score to be filled in.
Lookup: For ARTKQTARKSTGGKAPRKQ (A Rme2a T Kac Q T A Rme2a Kme3 S T G G K A P R K Q) , what is its reported binding score?
Found: 0.0133
